Listing: protein stability index of selected variants
B1: TRIM35 (parent)
chain: DKELLCCSCQADPRHQGHRVQPVK

variants of: B1; assay: protein stability index of a GFP-peptide fusion (GPS, HEK-293T) (PSI 1-6); higher = more stable; details: c terminus: a fixed tail appended;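 note: lentivirally expressed fusions sorted by FACS into six bins by GFP to DsRed ratio, PSI derived from sequencing read proportions per bin multiplied by bin number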
Response field accepts a number only; no unit should be typed.

// known answers, use as guide
H18C 2.75
D12Q 3.4
C7R 3.76
C6I 2.61
D12H 2.89

Requested field: protein stability index. Item: "A11N"
4.24

Returns the measured protein stability index for the input variant. Input: "E3A"
2.92

Recorded protein stability index for "R14F" , please?
3.35

Quick one: protein stability index of "D1Q" ?
3.59

// lookup protein stability index for "D1C"
3.49

// lookup protein stability index for "Q16I"
3.82
